Target: T1, mouse tissue factor pathway inhibitor (TFPI) (mouse, UniProt O54819 29-289, limits assumed)
T1 construct: Bought protein; also called mouse TFPI; mTFPI
T1 sequence (looked up): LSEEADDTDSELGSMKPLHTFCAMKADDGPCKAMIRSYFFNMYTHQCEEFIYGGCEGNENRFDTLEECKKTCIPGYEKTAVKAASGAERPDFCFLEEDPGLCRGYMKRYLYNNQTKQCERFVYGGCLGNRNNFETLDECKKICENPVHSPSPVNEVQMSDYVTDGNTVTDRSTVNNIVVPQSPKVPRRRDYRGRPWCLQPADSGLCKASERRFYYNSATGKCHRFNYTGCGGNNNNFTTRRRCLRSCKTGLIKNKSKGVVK
Assay: Biacore, TFPI on CM5 chip, Fab in mobile phase
MEASURED_PROPERTY: Kd (nM)
Write the number in nM without appending the unit.

Value of measured Kd for the entry TP-3C2 Fab (Fab, V domains shown, Human Fab from HuCal Gold, expressed in E. coli TG1) VH: QVQLQQSGPGLVKPSQTLSLTCAISGDSVSSSSAAWSWIRQSPGRGLEWLGMIYYRSKWYNHYAVSVKSRITINPDTSKNQFSLQLNSVTPEDTAVYYCARGGSGVMDVWGQGTLVTVSS VL: DIQMTQSPSSLSASVGDRVTITCRASQSITNYLNWYQQKPGKAPKLLIYDVSNLQSGVPSRFSGSGSGTDFTLTISSLQPEDFAVYYCQQYSGYPLTFGQGTKVEIKR : 28.5

Lab book: Kd of TP-2G6 Fab (Fab, V domains shown, Human Fab from HuCal Gold, expressed in E. coli TG1) VH: QVQLQQSGPGLVKPSQTLSLTCAISGDSVSSSSAAWSWIRQSPGRGLEWLGIIYYRSKWYNDYAVSVKSRITINPDTSKNQFSLQLNSVTPEDTAVYYCARHSMVGFDVWGQGTLVTVSS VL: DIVLTQSPATLSLSPGERATLSCRASQYVTSSYLAWYQQKPGQAPRLLIYGSSRATGVPARFSGSGSGTDFTLTISSLEPEDFATYYCQQYSSSPITFGQGTKVEIKR noted as 46.1

// field: Kd; key: TP-2B3 Fab (Fab, V domains shown, Human Fab from HuCal Gold, expressed in E. coli TG1) VH: QVQLQQSGPGLVKPSQTLSLTCAISGDSVSSNSAAWGWIRQSPGRGLEWLGMIYYRSKWYNSYAVSVKSRITINPDTSKNQFSLQLNSVTPEDTAVYYCARTMSKYGGPGMDVWGQGTLVTVSS VL: DIVLTQSPATLSLSPGERATLSCRASQNIGSNYLAWYQQKPGQAPRLLIYGASTRATGVPARFNGSGSGTDFTLTISSLEPEDFAVYYCQQLNSIPVTFGQGTKVEIKR ; value = 27

Reported Kd ( TP-3C1 Fab (Fab, V domains shown, Human Fab from HuCal Gold, expressed in E. coli TG1; Shares its VL with TP-2G9 and its VH with TP-3F2) VH: QVQLVESGGGLVQPGGSLRLSCAASGFTFSSYSMHWVRQAPGKGLEWVSGISYSSSFTYYADSVKGRFTISRDNSKNTLYLQMNSLRAEDTAVYYCARALGGGVDYWGQGTLVTVSS VL: DIALTQPASVSGSPGQSITISCTGTSSDLGGFNTVSWYQQHPGKAPKLMIYSVSSRPSGVSNRFSGSKSGNTASLTISGLQAEDEADYYCQSYDLNNLVFGGGTKLTVLG ) = 33.6

Hello, the source for this data is patent US20120269817A1, in case you need it.
